molecular target: UniProt Q7ZJM1; test: Inhibition of HIV1 integrase strand transfer activity by PAGE
pIC50: −log10 of the molar value.
outcome-measure: pIC50

// solved cases for pIC50 follow
> print(dat)
                                smiles.repr   val
1  Cn1c(=O)c(C(=O)O)c(O)c2cc(Oc3ccccc3)ccc21  4.85
2  CCCCCn1c(=O)c(C(=O)Nc2cc([N+](=O)[O-])ccc2O)c(O)c2ccccc21  5.05
3  Cn1c(=O)c(C(=O)O)c(O)c2cc(Cc3ccccc3)ccc21  5.22

I: CCOC(=O)c1c(O)c2cc(Cc3ccccc3)ccc2n(C)c1=O
II: CCOC(=O)c1c(O)c2cc(Cc3ccc(F)cc3)ccc2n(C)c1=O
Among I and II , which shows a numerically higher pIC50 result? Reply with the label of the item you choose. I
(I: 3.96, II: 3.66)

I: COc1ccc2c(c1)c(O)c(C(=O)O)c(=O)n2C
II: CCCCCn1c(=O)c(C(=O)O)c(O)c2cc(Cc3ccc(F)cc3)ccc21
Select one: I or II . Criterion: greater recorded pIC50. Your answer should be the label of the entry you select. II
(II: 5.30, I: 3.49)

----------
target: Human immunodeficiency virus type 1 integrase (Human immunodeficiency virus 1, UniProt Q7ZJM1); test: Inhibition of HIV1 integrase 3' processing activity by PAGE
Sequence (Q7ZJM1 whole entry): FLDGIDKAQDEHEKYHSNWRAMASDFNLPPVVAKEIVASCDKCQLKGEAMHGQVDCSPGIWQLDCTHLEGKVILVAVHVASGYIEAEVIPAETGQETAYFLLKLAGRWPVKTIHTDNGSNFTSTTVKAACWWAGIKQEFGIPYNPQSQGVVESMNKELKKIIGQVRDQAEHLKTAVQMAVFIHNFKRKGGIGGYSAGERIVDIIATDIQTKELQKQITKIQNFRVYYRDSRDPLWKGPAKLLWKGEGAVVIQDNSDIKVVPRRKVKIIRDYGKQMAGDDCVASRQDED
pIC50: −log10 of the molar value.
outcome-measure: pIC50

> print(dat)
                                smiles.repr  outcome.measure   val
1  Cn1c(=O)c(C(=O)O)c(O)c2cc(Cc3ccc(F)cc3)ccc21            pIC50  4.64

A: Cn1c(=O)c(C(=O)O)c(O)c2cc(Oc3ccccc3)ccc21
B: COc1ccc2c(c1)c(O)c(C(=O)O)c(=O)n2C
C: CCOC(=O)c1c(O)c2cc(Cc3ccccc3)ccc2n(C)c1=O
D: CCCCCn1c(=O)c(C(=O)O)c(O)c2cc(Cc3ccc(F)cc3)ccc21
Ascending by pIC50, please: list the compounds accordingly. State the ranking by listing the labels in the requested order. B, C, D, A

----------
molecular target: Human immunodeficiency virus type 1 integrase (Human immunodeficiency virus 1, UniProt Q7ZJM1); test: Inhibition of HIV1 integrase 3' processing activity by PAGE
outcome-measure: IC50 (µM)

> print(dat)
                                smiles.repr  unit.descriptor  val
1  CCCCCn1c(=O)c(C(=O)Nc2cc([N+](=O)[O-])ccc2O)c(O)c2ccccc21               µM    9

a: CCOC(=O)c1c(O)c2cc(Cc3ccc(F)cc3)ccc2n(C)c1=O
b: Cn1c(=O)c(C(=O)O)c(O)c2cc(Cc3ccccc3)ccc21
For a and b , which recorded IC50 is lower? Please reply using the label of the selected record. b
